Molecular target: BCL2 D103Y (Homo sapiens, UniProt P10415, D103Y)
Experiment: TR-FRET competitive binding assay, BCL2 D103Y
Conditions: Ki determined from IC50, read-out: TR_FRET EKI_Bcl2 D103Y
TEST READOUT: Ki (nM)
Give the value in nM but do not write nM after it.

Input: Ki for Cc1c(N(C(=O)c2cc(-c3cc4c(cc3C(=O)N3Cc5ccccc5C[C@H]3CN3CCCCC3)CN(C(=O)Cc3cc(F)c(OCCN5CCOCC5)cc3F)CC4)n(C)c2C)c2ccc(O)cc2)cc(C#N)n1C ?
Output: 0.21

Input: Ki for Cc1c(N(C(=O)c2cc(-c3cc4c(cc3C(=O)N3Cc5ccccc5C[C@H]3CN3CCCC3)CN(C(=O)Cc3c(F)cc(OCCN5CCOCC5)cc3F)CC4)n(C)c2C)c2ccc(O)cc2)cc(C#N)n1C ?
Output: 0.09

Input: Ki for Cc1c(N(C(=O)c2cc(-c3cc4c(cc3C(=O)N3Cc5ccccc5C[C@H]3CN(C(C)C)C(C)C)CN(C(=O)Cc3ccc(OCCN5CCOCC5)cc3F)CC4)n(C)c2C)c2ccc(O)cc2)cc(C#N)n1C ?
Output: 0.41

----------
Target: UniProtKB Q07817
Sequence (Q07817 other isoform, or with tags, fused parts or gaps): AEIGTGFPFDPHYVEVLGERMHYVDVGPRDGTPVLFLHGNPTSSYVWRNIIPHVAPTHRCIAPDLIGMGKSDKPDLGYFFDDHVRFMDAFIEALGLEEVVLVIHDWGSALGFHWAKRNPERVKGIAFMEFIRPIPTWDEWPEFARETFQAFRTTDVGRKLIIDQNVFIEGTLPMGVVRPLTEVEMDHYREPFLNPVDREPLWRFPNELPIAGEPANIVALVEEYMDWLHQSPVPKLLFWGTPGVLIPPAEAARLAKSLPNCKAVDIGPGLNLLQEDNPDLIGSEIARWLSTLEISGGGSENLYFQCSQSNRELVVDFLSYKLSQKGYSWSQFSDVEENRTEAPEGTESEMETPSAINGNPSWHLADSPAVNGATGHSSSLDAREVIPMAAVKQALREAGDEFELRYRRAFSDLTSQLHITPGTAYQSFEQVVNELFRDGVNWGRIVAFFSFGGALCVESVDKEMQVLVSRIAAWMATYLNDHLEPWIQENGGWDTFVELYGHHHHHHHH
Assay: TR-FRET competitive binding assay, BCLXL WT
Details: ratio Ki BCLxL / Ki BCL2 WT
Reported TR_FRET EKI BCLxL/WT selectivty ratio values are given for each entry in this list.

Solved entries:
Cc1c(N(C(=O)c2cc(-c3cc4c(cc3C(=O)N3Cc5ccccc5C[C@H]3CN3CCCC3)CN(C(=O)Cc3ccc(OCCC5CCOCC5)cc3)CC4)n(C)c2C)c2ccc(O)cc2)cc(C#N)n1C [Example 99]; 52.8
Cc1c(N(C(=O)c2cc(-c3cc4c(cc3C(=O)N3Cc5ccccc5C[C@H]3CN3CCOCC3)CN(C(=O)Cc3ccc(OCCC5CCOCC5)cc3F)CC4)n(C)c2C)c2ccc(O)cc2)cc(C#N)n1C [Example 54]; 24.0
Cc1c(C(=O)N(c2ccc(O)cc2)c2cc(C#N)n(C(C)C)c2C)cc(-c2cc3c(cc2C(=O)N2Cc4ccccc4C[C@H]2C)CN(C(=O)Cc2ccc(OCCN4CCOCC4)cc2)CC3)n1C [Example 64]; 25.5

Input: TR_FRET EKI BCLxL/WT selectivty ratio for CCn1c(C#N)cc(N(C(=O)c2cc(-c3cc4c(cc3C(=O)N3Cc5ccccc5C[C@H]3C)CN(C(=O)Cc3ccc(OCCN5CCOCC5)cc3)CC4)n(C)c2C)c2ccc(O)cc2)c1C [Example 41] ?
Output: 16.7

Input: TR_FRET EKI BCLxL/WT selectivty ratio for COc1ncc(N(C(=O)c2cc(-c3cc4c(cc3C(=O)N3Cc5ccccc5C[C@H]3C)CN(C(=O)Cc3ccc(OCCN5CCOCC5)cc3)CC4)n(C)c2C)c2ccccc2)cc1F [Example 183] ?
Output: 117.3

----------
Molecular target: BCL2 D103Y (Homo sapiens, UniProt P10415, D103Y)
Assay: TR-FRET competitive binding assay, BCL2 D103Y
Details: Ki determined from IC50, read-out: TR_FRET EKI_Bcl2 D103Y
TEST READOUT: Ki

Solved entries:
Cc1c(N(C(=O)c2cc(-c3cc4c(cc3C(=O)N3Cc5ccccc5C[C@H]3C)CN(C(=O)Cc3ccc(OCCN5CCOCC5)cc3)CC4)n(C)c2C)c2ccccc2)cnn1C(F)F; 0.13 nM
Cc1c(N(C(=O)c2cc(-c3cc4c(cc3C(=O)N3Cc5ccccc5C[C@H]3CN3CCOCC3)CN(C(=O)Cc3ccc(OCCC5CCOCC5)cc3F)CC4)n(C)c2C)c2ccc(O)cc2)cc(C#N)n1C; 0.11 nM
COc1ccc(N(C(=O)c2cc(-c3cc4c(cc3C(=O)N3Cc5ccccc5C[C@H]3CN(C)C(C)C)CN(C(=O)Cc3ccc(OCCN5CCOCC5)cc3F)CC4)n(C)c2C)c2ccc(O)cc2)cc1C#N; 0.13 nM
Cc1c(N(C(=O)c2cc(-c3cc4c(cc3C(=O)N3Cc5ccccc5C[C@H]3CN3CCCC[C@H]3C)CN(C(=O)Cc3ccc(OCCN5CCOCC5)cc3F)CC4)n(C)c2C)c2ccc(O)cc2)cc(C#N)n1C; 0.28 nM
Cc1c(C(=O)N(c2ccc(O)cc2)c2cc(C#N)n(CC3CCOC3)c2C)cc(-c2cc3c(cc2C(=O)N2Cc4ccccc4C[C@H]2C)CN(C(=O)Cc2ccc(OCCN4CCOCC4)cc2F)CC3)n1C (single isomer, unassigned); 0.43 nM

Input: Ki for Cc1c(C(=O)N(c2ccc(O)cc2)c2cc(C#N)n(C(F)F)c2C)cc(-c2cc3c(cc2C(=O)N2Cc4ccccc4C[C@H]2CN2CCCCC2)CN(C(=O)Cc2ccc(OCCN4CCN(CCF)CC4)cc2F)CC3)n1C ?
Output: 0.13 nM

----------
Reported pKi values are given for each entry in this list.
Molecular target: BCL2 WT (Homo sapiens (Human), UniProt P10415)
Sequence (P10415 other isoform, or with tags, fused parts or gaps): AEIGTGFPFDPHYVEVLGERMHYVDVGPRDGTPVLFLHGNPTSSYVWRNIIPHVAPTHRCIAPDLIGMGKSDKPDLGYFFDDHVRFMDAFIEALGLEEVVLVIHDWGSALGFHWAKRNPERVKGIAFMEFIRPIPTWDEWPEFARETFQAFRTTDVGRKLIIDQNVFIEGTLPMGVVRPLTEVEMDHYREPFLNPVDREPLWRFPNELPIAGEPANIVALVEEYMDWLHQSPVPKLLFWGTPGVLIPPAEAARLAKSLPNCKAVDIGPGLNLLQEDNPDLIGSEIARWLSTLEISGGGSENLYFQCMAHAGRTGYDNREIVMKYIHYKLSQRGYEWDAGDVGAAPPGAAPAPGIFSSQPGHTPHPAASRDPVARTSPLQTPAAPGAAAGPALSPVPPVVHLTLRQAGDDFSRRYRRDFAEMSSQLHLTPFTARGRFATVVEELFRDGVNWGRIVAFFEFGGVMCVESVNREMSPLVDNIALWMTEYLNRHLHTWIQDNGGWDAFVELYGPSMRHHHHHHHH
Assay: TR-FRET competitive binding assay, BCL2 WT
Settings: Ki determined from IC50, read-out: TR_FRET EKI_Bcl2 WT
pKi is a log-scale quantity: -log10 of the concentration expressed in molar.

Cc1cc(O)ccc1N(C(=O)c1cc(-c2cc3c(cc2C(=O)N2Cc4ccccc4C[C@H]2C)CN(C(=O)Cc2ccccc2)CC3)n(C)c1C)c1cc(C#N)n(C)c1C; 9.32
Cc1c(N(C(=O)c2cc(-c3cc4c(cc3C(=O)N3Cc5ccccc5C[C@H]3C)CN(C(=O)C3Cc5ccccc5O3)CC4)n(C)c2C)c2ccc(O)cc2)cc(C#N)n1C (stereo partly shown); 9.28
Cc1c(N(C(=O)c2cc(-c3cc4c(cc3C(=O)N3Cc5ccccc5C[C@H]3CN3CCCCC3)CN(C(=O)COc3ccccc3)CC4)n(C)c2C)c2ccc(O)cc2)cc(C#N)n1C; 10.15
Cc1c(N(C(=O)c2cc(-c3cc4c(cc3C(=O)N3Cc5ccccc5C[C@H]3CN3CCCCC3)CN(C(=O)Cc3c(F)cc(OCCN5CCOCC5)cc3F)CC4)n(C)c2C)c2ccc(O)cc2)cc(C#N)n1C; 10.30
COC[C@@H]1Cc2ccccc2CN1C(=O)c1cc2c(cc1-c1cc(C(=O)N(c3ccc(O)cc3)c3cc(C#N)n(C(F)F)c3C)c(C)n1C)CCN(C(=O)Cc1ccc(OCCN3CCOCC3)cc1)C2; 9.96
Cc1c(N(C(=O)c2cc(-c3cc4c(cc3C(=O)N3Cc5ccccc5C[C@H]3CN3CCCCC3)CN(C(=O)Cc3ccc(OCCN5CCO[C@H](C)C5)cc3)CC4)n(C)c2C)c2ccc(O)cc2)cc(C#N)n1C; 10.30
Cc1c(N(C(=O)c2cc(-c3cc4c(cc3C(=O)N3Cc5ccccc5C[C@H]3CN3CCCCC3)CN(C(=O)Cc3ccc(OCCC5CCOCC5)nc3)CC4)n(C)c2C)c2ccc(O)cc2)cc(C#N)n1C; 10.00
Cc1c(N(C(=O)c2cc(-c3cc4c(cc3C(=O)N3Cc5ccccc5C[C@H]3C)CN(C(=O)Cc3ccc(OCCN5CCC(F)CC5)cc3)CC4)n(C)c2C)c2ccc(O)cc2)cc(C#N)n1C; 10.15
Cc1c(N(C(=O)c2cc(-c3cc4c(cc3C(=O)N3Cc5ccccc5C[C@H]3C)CN(C(=O)Cc3ccc(OCCN5CCN(CC(F)(F)F)CC5)cc3)CC4)n(C)c2C)c2ccc(O)cc2)cc(C#N)n1C; 9.19
Cc1c(N(C(=O)c2cc(-c3cc4c(cc3C(=O)N3Cc5ccccc5C[C@H]3CN3CCC(F)(F)CC3)CN(C(=O)Cc3ccc(OCCN5CCOCC5)cc3F)CC4)n(C)c2C)c2ccc(O)cc2)cc(C#N)n1C; 9.40

Please find the next compound below.
Input: Recorded pKi for Cc1c(N(C(=O)c2cc(-c3cc4c(cc3C(=O)N3Cc5ccccc5C[C@H]3C)CN(C(=O)Cc3ccc(CCN5CCOCC5)cc3)CC4)n(C)c2C)c2ccc(O)cc2)cc(C#N)n1C with BCL2 WT (Homo sapiens (Human), UniProt P10415), please?
Output: 10.00

----------
Target: BCL2 WT (Homo sapiens (Human), UniProt P10415)
Assay: TR-FRET competitive binding assay, BCL2 WT
Details: Ki determined from IC50, read-out: TR_FRET EKI_Bcl2 WT
TEST READOUT: Ki (pM)
Give the value in pM but do not write pM after it.

Solved entries:
Cc1c(N(C(=O)c2cc(-c3cc4c(cc3C(=O)N3Cc5ccccc5C[C@H]3C)CN(C(=O)Cc3ccc(OCCN5CCOCC5)cc3Cl)CC4)n(C)c2C)c2ccc(O)cc2)cc(C#N)n1C; 140
COc1ccc(N(C(=O)c2cc(-c3cc4c(cc3C(=O)N3Cc5ccccc5C[C@H]3CN(C)C(C)C)CN(C(=O)Cc3ccc(OCCN5CCOCC5)cc3F)CC4)n(C)c2C)c2ccc(O)cc2)cc1C#N; 40

Please find the next compound below.
Input: Ki for Cc1c(N(C(=O)c2cc(-c3cc4c(cc3C(=O)N3Cc5ccccc5C[C@H]3CN3CCCCC3)CN(C(=O)Cc3ccc(OCCC5COCCO5)cc3F)CC4)n(C)c2C)c2ccc(O)cc2)cc(C#N)n1C (single isomer, unassigned) [Example 175] ?
Output: 80

These entries and their values trace back to patent US20250179047A1.
